Provide the reported GI50 of each item.
System: RXF 631
Assay Protocol: NCI tumour cell line growth inhibition, 48 h
The source made the active and inactive calls. Cut-off read from the data, not from the text of the source: active = GI50 up to about 1.1 µM and inactive = higher.

COC12OCCN(C)C1=CC(=O)C1N=NCC12 (stereo not drawn) ... > 100 µM (inactive)

Quick one: give me GI50 for each item below, same order please.
1. CC1=C(/C=C/C(C)=C/C2CC(N(C)C)=CC(=O)O2)C(C)(C)CCC1 (stereo not drawn)
2. CCC1(CN(C)C)CC/C(=C\c2ccc(OC)cc2)C1=O (stereo not drawn)
3. Clc1cccc(N2CCN(CCCN3CCc4c([nH]c5ccccc45)C3c3cccnc3)CC2)c1 (stereo not drawn)
4. C1CSC(=[N+]2CC[N+](=C3SCCS3)CC2)S1

Reply:
13.1 µM (inactive)
62.7 µM (inactive)
3.63 µM (inactive)
> 100 µM (inactive)

----------
System: TK-10
Assay Protocol: NCI tumour cell line growth inhibition, 48 h
The source made the active and inactive calls. Rule as the data show it: active = GI50 up to about 1.1 µM and inactive = higher.
Provide the reported GI50 of each item.

Recorded GI50, per entry:
COc1nc2c(nc(N)n2C2OC(CO)C(O)C(O)C2O)c(=O)n1C (stereo not given) ... > 100 µM (inactive)
O=C1C(c2ccccc2)=C(c2ccccc2)C(c2ccccc2)/C1=C1\C(=O)C(c2ccccc2)=C(c2ccccc2)C1c1ccccc1 (stereo not given) ... > 100 µM (inactive)
O=C(O)CCNc1[nH]cnc2ncnc1-2 ... > 100 µM (inactive)
COC(=O)/C(=N\Nc1nnc(C)n1N)C(C#N)c1ccccc1 (stereo not given) ... > 100 µM (inactive)
CC(C)(C)c1cc2c(O)c(c1)Cc1cc(C(C)(C)C)cc(c1O)Cc1cc(C(C)(C)C)cc(c1O)Cc1cc(C(C)(C)C)cc(c1O)Cc1cc(C(C)(C)C)cc(c1O)Cc1cc(C(C)(C)C)cc(c1O)Cc1cc(C(C)(C)C)cc(c1O)Cc1cc(C(C)(C)C)cc(c1O)C2 ... > 50 µM (inactive)

Quick one: give me GI50 for each item below, same order please.
1. CCCCCCCCCC(=O)CC(=O)c1c(O)cccc1O
2. COC(=O)C1=C(C(=O)OC)C(OO)(c2ccccc2)OC1=O (stereo not given)

Reply:
1: 41.8 µM (inactive); 2: > 100 µM (inactive)

Quick one: give me GI50 for each item below, same order please.
1. Cc1ccc2c(O)cc(-c3ccc4ccccc4c3)nc2n1
2. O=C(/C=C/c1ccccc1)CCC1C(=O)NC(=O)NC1=O
3. CN(C)CCCNc1ncnc2[nH]cnc12

Reply:
["8.45 µM (inactive)", "> 100 µM (inactive)", "> 100 µM (inactive)"]

----------
Test system: KM-20L2
Assay Protocol: NCI tumour cell line growth inhibition, 48 h
Activity calls are given as the source filed them. Cut-off read from the data, not from the text of the source: active = GI50 up to about 1.1 µM and inactive = higher.
Recorded Metric: GI50

CCC1(CN(C)C)CC/C(=C\c2ccc(OC)cc2)C1=O (stereo unspecified) ... > 100 µM (inactive)

Quick one: give me GI50 for each item below, same order please.
1. c1ccc(-n2cnnc2-c2nsc3ccccc23)cc1
2. CC(C)(C)C1C=C(Sc2ccccc2)C(=O)O1 (stereo unspecified)
3. CCN(CC)CCCC(C)Nc1c2ccc(Cl)cc2nc2cc(Cl)ccc12 (stereo unspecified)
4. CC(C)(C)CC(C)(C)c1cc2c(O)c(c1)Cc1cc(C(C)(C)CC(C)(C)C)cc(c1O)Cc1cc(C(C)(C)CC(C)(C)C)cc(c1O)Cc1cc(C(C)(C)CC(C)(C)C)cc(c1O)Cc1cc(C(C)(C)CC(C)(C)C)cc(c1O)C2
5. COC1CC(O[C@H]2CC[C@@]3(C)C(=CCC4(O)C3CCC35C(=O)OC6(C)O[C@@]43CCC65)C2)OC(C)C1O (stereo partly specified)

Reply:
1: > 100 µM (inactive); 2: 39.1 µM (inactive); 3: 3.42 µM (inactive); 4: > 100 µM (inactive); 5: > 100 µM (inactive)

----------
Tested on: SK-MEL-28
Assay Protocol: NCI tumour cell line growth inhibition, 48 h
Calls of active or inactive are those of the source. Cut-off read from the data, not from the text of the source: active = GI50 up to about 1.1 µM and inactive = higher.
Recorded Metric: GI50

Cc1cc(OC(=O)NCn2cc(-c3ccccc3)nn2)ccc1Cl ... > 100 µM (inactive)
CCCCCCCCCCCCOC(=S)NCCCC ... 38 µM (inactive)
c1ccc(/N=C2\SC(=NNc3ccccc3)S\C2=N/c2ccccc2)cc1 ... > 100 µM (inactive)
c1ccc(-c2csc3ncn4cnnc4c23)cc1 ... > 100 µM (inactive)
OCC(O)C(O)c1nn(-c2ccccc2)c2nc3cc(Cl)c(Cl)cc3nc12 (stereo not drawn) ... 41.3 µM (inactive)
Cc1ccc(S(=O)(=O)O/N=C2\CCC\C2=C/c2ccccc2)cc1 ... 11.1 µM (inactive)

Quick one: give me GI50 for each item below, same order please.
1. CC(=N/NC(=S)N1CCCCC1)/C(C)=N\NC(=S)N1CCCCC1
2. C/N=C(\S)N/N=C/C(C)=N/N/C(S)=N/C
3. CC(CC(=O)Nc1ccc(NC(=O)CC(C)/N=N\C(N)=S)cc1)/N=N\C(N)=S (stereo not drawn)
4. O=c1oc2ccccc2cc1-c1nnc(-c2ccccc2)s1
5. CC(C)(C)OC/C=C(/CO)[C@@H]1C=C[C@H](O)C1
6. C[C@H]1[C@H](C)N(Cc2ccccc2)P(=O)(C(O)/C=C/c2ccccc2)N1Cc1ccccc1 (stereo partly drawn)
7. CN(C)CCCNc1ncnc2[nH]cnc12
8. N=C(N)NCCCC(NC(=O)OCCCCCn1ccc(N)nc1=O)C(=O)O (stereo not drawn)

Reply:
1. 2.08 µM (inactive)
2. > 100 µM (inactive)
3. > 100 µM (inactive)
4. 98.6 µM (inactive)
5. > 100 µM (inactive)
6. 8.51 µM (inactive)
7. > 100 µM (inactive)
8. > 100 µM (inactive)

Quick one: give me GI50 for each item below, same order please.
1. CCOC(=O)c1ccc(N(CCOS(C)(=O)=O)CCOS(C)(=O)=O)cc1
2. O=C(CSc1nc2nncc-2c(O)[nH]1)c1ccc(Cl)cc1
3. Nc1c(Br)c(=O)[nH]c(=O)n1COCCO
4. CCc1nc(N)nc(N)c1-c1ccc(NCCN)c([N+](=O)[O-])c1
5. CNC(=O)N(C1=NCC(C)S1)c1ccc(C)c(C)c1 (stereo not drawn)

Reply:
> 100 µM (inactive)
> 100 µM (inactive)
> 100 µM (inactive)
> 59.3 µM (inactive)
8.49 µM (inactive)

Quick one: give me GI50 for each item below, same order please.
1. O=C(O)c1ccccc1C1c2ccccc2Oc2ccccc21
2. CC(=O)OC(Cc1ccc2ccccc2n1)(C(F)(F)F)C(F)(F)F
3. CCOC(=O)c1c(N2CCCC2)[nH]c(=O)c(C(c2ccc(N(C)C)cc2)c2c(O)c(C(=O)OCC)c(N3CCCC3)[nH]c2=O)c1O

Reply:
["> 100 µM (inactive)", "1.42 µM (inactive)", "> 100 µM (inactive)"]

Task item: Given the entry `Cn1cc2ccccc2c1-c1nc(F)nc(F)n1` , report its measured GI50.
Reply: > 100 µM (inactive)

----------
Test system: A498
Assay Protocol: NCI tumour cell line growth inhibition, 48 h
Calls of active or inactive are those of the source. Rule as the data show it: active = GI50 up to about 1.1 µM and inactive = higher.
Hello, when you answer, please use one of the following outcomes: active, inactive

Answered examples (10):
COc1ccc(N2C(=O)/C(=C(\C)c3cc4ccccc4oc3=O)N=C2c2cc([N+](=O)[O-])ccc2Cl)cc1 ... inactive
C[n+]1cn(CC(=O)c2ccccc2)c(C(N)=O)c1N ... inactive
O=c1cc(-c2ccccc2)nc(-n2[nH]c3c(c2=O)CCCC3)[nH]1 ... inactive
COc1ccc(CCc2cc(OC)c(OC)c(OC)c2)cc1 ... active
CC(C)(C)OC(=O)N1NC(c2ccccc2)CC1c1ccccc1 (configuration not stated) ... inactive
CCCCCCCCCCCCCCCC(=O)N[C@H]1CCc2cc(OC)c(OC)c(OC)c2-c2ccc(SC)c(=O)cc21 ... active
O=C(O)c1ccc2c(c1)Cc1cc([N+](=O)[O-])ccc1-2 ... inactive
COc1ccc(C2COc3cc(OC(C)=O)c(OC(C)=O)cc3C2)cc1 (configuration not stated) ... inactive
CCCCCCCCCCCCOC(=S)NCCCC ... inactive
CN1COCN/C1=N/C#N ... inactive

Task item: How did this test come out for `Nc1ccc2c(=O)cc(-c3ccc(Br)s3)[nH]c2n1` ?
Reply: inactive

Task item: How did this test come out for `O=C1C2=C(C3=NCCc4c[nH]c1c43)c1c(cc(Br)c(O)c1Br)CCN2` ?
Reply: inactive

Task item: How did this test come out for COc1ccc(C(O)c2cc(OC)c(OC)c(OC)c2)cc1 (configuration not stated) ?
Reply: inactive

Task item: How did this test come out for CCC1(Br)C(=O)NC(=O)N(C2CC(O)C(CO)O2)C1N=[N+]=[N-] (configuration not stated) ?
Reply: inactive

Task item: How did this test come out for CC(=O)OC12COC1CC(O)C1(C)C(=O)C(O)C3=C(C)C(O)CC(O)(C(OC(=O)c4ccccc4)C21)C3(C)C (configuration not stated) ?
Reply: inactive

Task item: How did this test come out for `COc1cc(C(=O)c2cocc2C(=O)c2ccc3c(c2)OCO3)cc(OC)c1OC` ?
Reply: inactive
